# Test system: H. influenzae ATCC49247
# assay.explanation: MIC, microdilution broth method (NCCLS)
# Type: cell-based
# measurement.conditions: E: H. influenzae ATCC49247, 35° C., 16-20 hours
readout.name: MIC (µg/mL)

Consider the following illustrative entries.
chemical_string=CC[C@H]1OC(=O)[C@H](C)C(=O)[C@H](C)[C@@H](O[C@@H]2O[C@H](C)C[C@H](N(C)C)[C@H]2O)[C@](C)(OC(=O)NCCc2ccccc2)C[C@@H](C)C(=O)[C@H](C)[C@H]2NC(=O)O[C@@]21C readout_name=MIC data_value=8
chemical_string=CC[C@H]1OC(=O)[C@H](C)C(=O)[C@H](C)[C@@H](O[C@@H]2O[C@H](C)C[C@H](N(C)C)[C@H]2O)[C@](C)(OC(=O)NCCCc2ccc(-c3ncccn3)cc2)C[C@@H](C)C(=O)[C@H](C)[C@H]2NC(=O)O[C@@]21C readout_name=MIC data_value=4
chemical_string=CC[C@H]1OC(=O)[C@H](C)C(=O)[C@H](C)[C@@H](O[C@@H]2O[C@H](C)C[C@H](N(C)C)[C@H]2O)[C@](C)(OC(=O)NCc2ccc(-c3nccc(OC)n3)cc2)C[C@@H](C)C(=O)[C@H](C)[C@H]2NC(=O)O[C@@]21C readout_name=MIC data_value=4

(A) CC[C@H]1OC(=O)[C@H](C)C(=O)[C@H](C)[C@@H](O[C@@H]2O[C@H](C)C[C@H](N(C)C)[C@H]2O)[C@](C)(OC(=O)NC/C=C/c2ccc(Br)cc2)C[C@@H](C)C(=O)[C@H](C)[C@H]2NC(=O)O[C@@]21C
(B) CC[C@H]1OC(=O)[C@H](C)C(=O)[C@H](C)[C@@H](O[C@@H]2O[C@H](C)C[C@H](N(C)C)[C@H]2O)[C@](C)(OC(=O)NC/C=C/c2ccc(-n3ccnc3)cc2)C[C@@H](C)C(=O)[C@H](C)[C@H]2NC(=O)O[C@@]21C
(C) CC[C@H]1OC(=O)[C@H](C)C(=O)[C@H](C)[C@@H](O[C@@H]2O[C@H](C)C[C@H](N(C)C)[C@H]2O)[C@](C)(OC(=O)NCCN(C)Cc2cccnc2)C[C@@H](C)C(=O)[C@H](C)[C@H]2NC(=O)O[C@@]21C
(D) CC[C@H]1OC(=O)[C@H](C)C(=O)[C@H](C)[C@@H](O[C@@H]2O[C@H](C)C[C@H](N(C)C)[C@H]2O)[C@](C)(OC(=O)NCc2ccc(-c3cc[nH]n3)cc2)C[C@@H](C)C(=O)[C@H](C)[C@H]2NC(=O)O[C@@]21C
Arrange these 4 compounds in increasing order of MIC. Response format: the labels, sorted as the prompt asks. D, B, A, C

* * *

# Test system: E. faecalis ATCC29212
# assay.explanation: MIC, microdilution broth method (NCCLS)
# Type: cell-based
# measurement.conditions: C: E. faecalis ATCC29212, 35° C., 16-20 hours
readout.name: MIC (µg/mL)

chemical_string=CC[C@H]1OC(=O)[C@H](C)C(=O)[C@H](C)[C@@H](O[C@@H]2O[C@H](C)C[C@H](N(C)C)[C@H]2O)[C@](C)(OC(=O)NC/C=C/c2cccc(-n3cccn3)n2)C[C@@H](C)C(=O)[C@H](C)[C@H]2NC(=O)O[C@@]21C test_target="E. faecalis ATCC29212" readout_name=MIC data_value=0.12
chemical_string=CC[C@H]1OC(=O)[C@H](C)C(=O)[C@H](C)[C@@H](O[C@@H]2O[C@H](C)C[C@H](N(C)C)[C@H]2O)[C@](C)(OC(=O)NC/C=C/c2ccc(-n3cccn3)c(OC)c2)C[C@@H](C)C(=O)[C@H](C)[C@H]2NC(=O)O[C@@]21C test_target="E. faecalis ATCC29212" readout_name=MIC data_value=0.12

(A) CC[C@H]1OC(=O)[C@H](C)C(=O)[C@H](C)[C@@H](O[C@@H]2O[C@H](C)C[C@H](N(C)C)[C@H]2O)[C@](C)(OC(=O)NC/C=C/c2ccc3cccnc3c2)C[C@@H](C)C(=O)[C@H](C)[C@H]2NC(=O)O[C@@]21C
(B) CC[C@H]1OC(=O)[C@H](C)C(=O)[C@H](C)[C@@H](O[C@@H]2O[C@H](C)C[C@H](N(C)C)[C@H]2O)[C@](C)(OC(=O)NCCN)C[C@@H](C)C(=O)[C@H](C)[C@H]2NC(=O)O[C@@]21C
Higher MIC: A or B ? Respond using the label that marks the chosen record. B
(B: 8 µg/mL, A: 0.06 µg/mL)

* * *

# Test system: E. coli OC2605
# assay.explanation: MIC, microdilution broth method (NCCLS)
# Assay type: cell-based
# measurement.conditions: A: E. coli OC2605, 35° C., 16-20 hours
# Method: Minimal inhibitory concentration (MIC) has been an indicator of in vitro antibacterial activity widely used in the art. The in vitro antimicrobial activity of the compounds was determined by the microdilution broth method following the test method from the National Committee for Clinical Laboratory Standards (NCCLS). […] Following inoculation of the microdilution trays, the trays are incubated at 35° C. for 16-20 hours and then read. […]
readout.name: MIC (µg/mL)

chemical_string=CC[C@H]1OC(=O)[C@H](C)C(=O)[C@H](C)[C@@H](O[C@@H]2O[C@H](C)C[C@H](N(C)C)[C@H]2O)[C@](C)(OC(=O)NCc2ccc(-n3cncn3)c(F)c2)C[C@@H](C)C(=O)[C@H](C)[C@H]2NC(=O)O[C@@]21C data_value=16

(a) CC[C@H]1OC(=O)[C@H](C)C(=O)[C@H](C)[C@@H](O[C@@H]2O[C@H](C)C[C@H](N(C)C)[C@H]2O)[C@](C)(OC(=O)NC/C=C/c2ccc3ncccc3c2)C[C@@H](C)C(=O)[C@H](C)[C@H]2NC(=O)O[C@@]21C
(b) CC[C@H]1OC(=O)[C@H](C)C(=O)[C@H](C)[C@@H](O[C@@H]2O[C@H](C)C[C@H](N(C)C)[C@H]2O)[C@](C)(OC(=O)NCC#Cc2cnc3ccccc3c2)C[C@@H](C)C(=O)[C@H](C)[C@H]2NC(=O)O[C@@]21C
Look at a and b . Which one has the lower recorded MIC number? Respond using the label that marks the chosen record. a
(a: 8 µg/mL, b: 16 µg/mL)

* * *

# System: H. influenzae ATCC49247
# assay.explanation: MIC, microdilution broth method (NCCLS)
# Assay type: cell-based
# measurement.conditions: E: H. influenzae ATCC49247, 35° C., 16-20 hours
readout.name: MIC (µg/mL)

Consider the following illustrative entries.
compound="CC[C@H]1OC(=O)[C@H](C)C(=O)[C@H](C)[C@@H](O[C@@H]2O[C@H](C)C[C@H](N(C)C)[C@H]2O)[C@](C)(OC(=O)NC/C=C/c2cncc3ccccc23)C[C@@H](C)C(=O)[C@H](C)[C@H]2NC(=O)O[C@@]21C [Compound 52]" data_value=2
compound="CC[C@H]1OC(=O)[C@H](C)C(=O)[C@H](C)[C@@H](O[C@@H]2O[C@H](C)C[C@H](N(C)C)[C@H]2O)[C@](C)(OC(=O)NC/C=C/c2ccc(-c3ccncn3)cc2)C[C@@H](C)C(=O)[C@H](C)[C@H]2NC(=O)O[C@@]21C [Compound 78]" data_value=4
compound="CC[C@H]1OC(=O)[C@H](C)C(=O)[C@H](C)[C@@H](O[C@@H]2O[C@H](C)C[C@H](N(C)C)[C@H]2O)[C@](C)(OC(=O)NCc2ccc(-c3ncccn3)cc2F)C[C@@H](C)C(=O)[C@H](C)[C@H]2NC(=O)O[C@@]21C [Compound 87]" data_value=4
compound="CC[C@H]1OC(=O)[C@H](C)C(=O)[C@H](C)[C@@H](O[C@@H]2O[C@H](C)C[C@H](N(C)C)[C@H]2O)[C@](C)(OC(=O)NC/C=C/c2ccc(-c3nccc(C)n3)cc2)C[C@@H](C)C(=O)[C@H](C)[C@H]2NC(=O)O[C@@]21C [Compound 68]" data_value=4
compound="CCC1OC(=O)C(C)(F)C(=O)C(C)C(OC2OC(C)CC(N(C)C)C2O)C(C)(OC(=O)NCC=Cc2ccc3ncccc3c2)CC(C)C(=O)C(C)C2NC(=O)OC12C (stereo not shown) [Compound 90]" data_value=4
compound="CCC1OC(=O)C(C)(F)C(=O)C(C)C(OC2OC(C)CC(N(C)C)C2O)C(C)(OC(=O)NCC=Cc2ccnc(Br)c2)CC(C)C(=NO)C(C)C2NC(=O)OC12C (stereo not shown) [Compound 130]" data_value=0.5
compound="CC[C@H]1OC(=O)[C@H](C)C(=O)[C@H](C)[C@@H](O[C@@H]2O[C@H](C)C[C@H](N(C)C)[C@H]2O)[C@](C)(OC(=O)NC/C=C/c2ccc(-n3cncn3)c(F)c2)C[C@@H](C)C(=O)[C@H](C)[C@H]2NC(=O)O[C@@]21C [Compound 53]" data_value=4
compound="CC[C@H]1OC(=O)[C@H](C)C(=O)[C@H](C)[C@@H](O[C@@H]2O[C@H](C)C[C@H](N(C)C)[C@H]2O)[C@](C)(OC(=O)NCc2ccc(-c3nccc(C)n3)cc2)C[C@@H](C)C(=O)[C@H](C)[C@H]2NC(=O)O[C@@]21C [Compound 69]" data_value=8

(a) CC[C@H]1OC(=O)[C@H](C)C(=O)[C@H](C)[C@@H](O[C@@H]2O[C@H](C)C[C@H](N(C)C)[C@H]2O)[C@](C)(OC(=O)NC/C=C/c2ccc(Br)nc2)C[C@@H](C)C(=O)[C@H](C)[C@H]2NC(=O)O[C@@]21C [Compound 72]
(b) CC[C@H]1OC(=O)[C@H](C)C(=O)[C@H](C)[C@@H](O[C@@H]2O[C@H](C)C[C@H](N(C)C)[C@H]2O)[C@](C)(OC(=O)NCc2ccc(-n3cncn3)c(F)c2)C[C@@H](C)C(=O)[C@H](C)[C@H]2NC(=O)O[C@@]21C [Compound 55]
Look at a and b . Which one has the lower recorded MIC number? Respond using the label that marks the chosen record. a
(a: 2 µg/mL, b: 4 µg/mL)

Where do the numbers come from? From patent US6613747B2.
